Where do the numbers come from? From patent US9511073B2.

system: Staphylococcus aureus (Isolate ID ATCC 29213); assay: Bacterial assay: MIC by broth microdilution or agar dilution (CLSI), S. aureus ATCC 29213; type: cell-based; conditions: Staphylococcus aureus, ATCC29213, read-out: S. aureus MIC (μg/mL) Activity Range, S. aureus (ATCC29213)
Listed compounds paired with reported MIC

> print(dat)
                                   compound      test.result
1  NC(=O)c1c(F)ccc(O[C@H](CO)c2nc(-c3ccc(F)cc3)c(Br)o2)c1F [Compound 279B]  0.25 to 1 µg/mL

Consider the compound CN1CCN(C(=O)OCC(Oc2ccc(F)c(C(N)=O)c2F)c2nc(-c3ccc(C(F)(F)F)cc3)c(Br)o2)CC1 (stereo not shown) and give its measured MIC. 0.25 to 1 µg/mL

Would you mind telling me what MIC value was observed for NC(=O)c1c(F)ccc(OC(C(=O)O)c2csc(-c3ccc(C(F)(F)F)cc3)n2)c1F (stereo not shown) ? > 16 µg/mL

For CN(C)CCNC(=O)OCC(Oc1ccc(F)c(C(N)=O)c1F)c1nc(-c2ccc(C(F)(F)F)cc2)c(Br)o1 (stereo not shown) , what is its reported MIC? 1 to 16 µg/mL
